This collection of values is drawn from patent US20240117030A1.

- Target: human IL-13 (human, UniProt P35225 35-146)
- Sequence (P35225 35-146 limits assumed, form in doubt): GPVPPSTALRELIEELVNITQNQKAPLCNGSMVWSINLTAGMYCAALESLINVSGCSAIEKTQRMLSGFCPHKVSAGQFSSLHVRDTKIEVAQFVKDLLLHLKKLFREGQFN
- Assay method text: cell-based or functional assay
Reported endpoint: CD23: Fold versus IL13-0001 (fold)

1) IL13-0001 (antibody, human IgG1, kappa, V domains shown, also called IL13433-0001; 1RVHC9-VLA4) VH: EVQLVESGGGLVQPGGSLRLSCAASGFTFSSYAMSWVRQAPGKGLEWVASISSGDTTYYPDSVKGRFTISRDNAKNSLYLQMNSLRAEDTAVYYCARNEGYYFGLTLWGQGTLVTVSS VL: DIQMTQSPSSLSASVGDRVTITCKASESVDHFGWSLVHWYQQKPGKAPKLLIYRASNLESGVPSRFSGSGSGTDFTLTISSLQPEDFATYYCQQSNEDPWTFGGGTKVEIKR ... 1
